Assay: Solubility plot in 2-MeTHF:n-heptane
Assay type: physicochemical
Conditions: 2-MeTHF:n-heptane solvent mixture, organic solvent or mixture; mixture of 2-MeTHF:n-heptane, at least a 2:1 ratio
endpoint-label: solubility

structure_smiles_string=OB(O)c1ccc(-c2cccc(F)c2)cc1F endpoint_value="> 100 mg/mL"
